- ASSAY_PROTOCOL: NCI Yeast Anticancer Drug Screen. Data for the cln2 rad14 strain (AID 165)
- TEST_CONTEXT: S. cerevisiae cln2 rad14 strain, at 50.0 µM (retest, dose inferred, filed as 5.0)
Compounds without any hit were thinned out: in the full panel of roughly 79,000, 15% have a hit. Active and inactive are the calls of the source. No stated cut-off is given here; in the data, active means growth inhibition above about 70%; inactive means the rest.
Returns: one label drawn from t = active, f = inactive

Worked examples, 3 compounds total:
[
  {
    "COMPOUND": "C[CH2][Sn]([F])([CH2]C)[CH2]C",
    "ASSIGNED_CATEGORY": "f"
  },
  {
    "COMPOUND": "OC1CC([CH2][Hg][I])OC([CH2][Hg][I])C1 (configuration not stated)",
    "ASSIGNED_CATEGORY": "t"
  },
  {
    "COMPOUND": "CO/C1=C\\C(C)=C\\C(C)C(O)C(C)C/C(C)=C/C=C/C(OC)C(C(C)C(O)C(C)C2(O)CC(O)C(C)C(C(C)C)O2)OC1=O (configuration not stated)",
    "ASSIGNED_CATEGORY": "t"
  }
]

Req: Which outcome was assigned to c1cc2n[pH]nc2cn1 (configuration not stated) in this test?
Resp: f

Req: What do you have for O=[As](O)(O)c1ccc(Cc2ccc([As](=O)(O)O)cc2)cc1 ?
Resp: t

Req: What do you have for CC1(C(=O)O)CCCC2(C)c3cc(O)ccc3CCC12 (configuration not stated) ?
Resp: t

Req: What do you have for S=C=NCCc1ccccc1 ?
Resp: f

Req: What do you have for CC(=O)OC[C@]12C[C@H](OC(=O)CC(C)C)C(C)=C[C@H]1OC1[C@H](O)[C@@H](OC(C)=O)[C@@]2(C)[C@@]12CO2 ?
Resp: t

Req: What do you have for CC1CCC2(OC1)OC1C(O)C3C4CCC5CC(OC6OC(CO)C(OC7OC(CO)C(O)C(OC8OCC(O)C(O)C8O)C7OC7OC(CO)C(O)C(OC8OC(CO)C(O)C(O)C8O)C7O)C(O)C6O)C(O)CC5(C)C4CCC3(C)C1C2C (configuration not stated) ?
Resp: t

Req: What do you have for O=[N+]([O-])c1c[c]([Hg][Cl])c(O)[c]([Hg][Cl])c1 ?
Resp: t

Req: What do you have for COc1cc(N(CC(C)Br)CC(C)Br)ccc1N=Nc1ccccc1C(=O)O (configuration not stated) ?
Resp: t

Req: What do you have for C[CH2][Sn]([CH2]C)([CH2]C)[CH2]C ?
Resp: f
